protocol-notes: PFAS levels in serum samples of airport employees (LC/MS/MS)
experimental-setup: 2nd sampling (October 2018), count 17
Please go through the items and note down their Serum PFAS level, Max.
One number for each entry.

O=C(O)C(F)(F)C(F)(F)C(F)(F)C(F)(F)C(F)(F)C(F)(F)C(F)(F)F | 28

Each compound below has a recorded value; state its Serum PFAS level, Max.
1. O=S(=O)(O)C(F)(F)C(F)(F)C(F)(F)C(F)(F)C(F)(F)C(F)(F)C(F)(F)C(F)(F)F
2. O=S(=O)(O)C(F)(F)C(F)(F)C(F)(F)C(F)(F)C(F)(F)C(F)(F)C(F)(F)F

Result:
24
6.1

For each of the items listed, what is its Serum PFAS level, Max?
1. O=C(O)C(F)(F)C(F)(F)C(F)(F)C(F)(F)C(F)(F)F
2. O=S(=O)(O)C(F)(F)C(F)(F)C(F)(F)C(F)(F)C(F)(F)F

Result:
[1.2, 14]
